Target: DNA topoisomerase 1 (Homo sapiens)
Sequence (whole entry): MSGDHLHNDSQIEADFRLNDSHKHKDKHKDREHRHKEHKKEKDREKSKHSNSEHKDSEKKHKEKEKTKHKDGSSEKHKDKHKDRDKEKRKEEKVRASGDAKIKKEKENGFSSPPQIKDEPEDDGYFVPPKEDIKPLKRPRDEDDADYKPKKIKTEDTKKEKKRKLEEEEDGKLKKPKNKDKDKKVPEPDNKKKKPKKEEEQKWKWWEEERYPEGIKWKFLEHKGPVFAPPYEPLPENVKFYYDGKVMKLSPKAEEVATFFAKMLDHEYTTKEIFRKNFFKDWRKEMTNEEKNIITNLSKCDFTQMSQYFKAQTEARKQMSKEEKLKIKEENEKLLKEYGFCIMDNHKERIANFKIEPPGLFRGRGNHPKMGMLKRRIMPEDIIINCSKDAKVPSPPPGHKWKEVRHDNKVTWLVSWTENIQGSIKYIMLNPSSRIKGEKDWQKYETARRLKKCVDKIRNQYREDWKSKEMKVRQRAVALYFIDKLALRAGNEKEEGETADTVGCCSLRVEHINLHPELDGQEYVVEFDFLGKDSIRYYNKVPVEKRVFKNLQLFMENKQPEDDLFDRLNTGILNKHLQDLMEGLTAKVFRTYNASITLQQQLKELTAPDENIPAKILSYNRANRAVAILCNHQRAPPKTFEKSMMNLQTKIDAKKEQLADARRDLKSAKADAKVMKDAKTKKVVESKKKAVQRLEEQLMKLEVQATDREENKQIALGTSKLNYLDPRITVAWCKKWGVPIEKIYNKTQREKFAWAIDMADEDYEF
Test: Stimulation of human recombinant DNA topoisomerase 1-mediated 751-bp BamHI-EcoRV fragment of SV40 DNA cleavage at 1 to 50 uM after 30 mins by polyacrylamide gel-electrophoresis
Active and inactive are the calls of the source. The rule behind the calls is not given here.
Classes used: active, inactive

- COc1cc(-c2c3c4cc(OC)c(O)cc4oc(=O)c3n3ccc4cc(O)c(OC)cc4c23)ccc1O: active
- CCc1c2c(nc3ccc(O)cc13)-c1cc3c(c(=O)n1C2)COC(=O)[C@]3(O)CC: active
- COc1cc2c3c(-c4ccc(OC(C)C)c(OC)c4)c(-c4ccc(OC(C)C)c(OC)c4)[nH]c(=O)c3n(Cc3ccccc3)c2cc1OCc1ccccc1: inactive
- COc1cc(-c2[nH]c(=O)c3[nH]c4cc(O)c(OC)cc4c3c2-c2ccc(O)c(OC)c2)ccc1O: inactive
- COc1cc(-c2[nH]c(=O)c3c(c2-c2ccc(O)c(OC)c2)c2cc(OC)c(O)cc2n3Cc2ccccc2)ccc1O: inactive

Each recorded value in this set is attributed to ChEMBL document CHEMBL1811759.
